# MEASUREMENT_TARGET: human cardiac ion channel proteins hKir3.1/Kir3.4 (Homo sapiens, UniProt P48544+P48549)
# Construct: expressed in transfected cells
# Sequence (P48549 1-501): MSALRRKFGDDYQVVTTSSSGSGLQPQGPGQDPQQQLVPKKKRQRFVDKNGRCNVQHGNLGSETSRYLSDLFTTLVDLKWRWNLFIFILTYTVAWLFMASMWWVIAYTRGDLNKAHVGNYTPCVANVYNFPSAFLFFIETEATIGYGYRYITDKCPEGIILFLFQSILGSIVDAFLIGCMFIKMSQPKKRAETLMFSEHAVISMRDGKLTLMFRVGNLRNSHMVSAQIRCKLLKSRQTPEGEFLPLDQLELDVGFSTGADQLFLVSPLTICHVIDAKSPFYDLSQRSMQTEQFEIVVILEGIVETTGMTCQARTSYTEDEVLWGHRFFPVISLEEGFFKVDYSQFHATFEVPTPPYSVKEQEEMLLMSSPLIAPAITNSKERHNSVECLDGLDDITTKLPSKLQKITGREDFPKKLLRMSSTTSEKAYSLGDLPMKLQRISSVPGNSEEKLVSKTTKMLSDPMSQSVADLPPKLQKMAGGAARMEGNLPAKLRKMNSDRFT
# Sequence (P48544 1-419): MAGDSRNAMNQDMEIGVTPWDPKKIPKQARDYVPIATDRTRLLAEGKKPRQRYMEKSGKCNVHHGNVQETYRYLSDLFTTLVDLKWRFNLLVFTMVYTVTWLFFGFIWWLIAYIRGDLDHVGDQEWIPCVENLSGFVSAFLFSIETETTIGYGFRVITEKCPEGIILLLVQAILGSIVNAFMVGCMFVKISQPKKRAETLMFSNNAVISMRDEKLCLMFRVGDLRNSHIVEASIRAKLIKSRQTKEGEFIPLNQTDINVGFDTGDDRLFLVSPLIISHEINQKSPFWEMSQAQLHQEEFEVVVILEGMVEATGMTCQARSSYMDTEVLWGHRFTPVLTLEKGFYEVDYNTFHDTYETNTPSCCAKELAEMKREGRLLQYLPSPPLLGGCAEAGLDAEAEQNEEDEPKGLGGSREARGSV
# PROTOCOL_DESCRIPTION: Atomic Absorption Screening (AAS) Rb efflux assay of hKir3.1/Kir3.4 block, carbachol/high K+ stimulated, 10-pt or 7-pt CR
# Assay type: cell-based
# TEST_SETTINGS: 10-pt CR (0.003 to 67 μmol/L), AAS Rb efflux, CHO-K1 cells expressing hKir3.1/Kir3.4; mean of >4 replicates; read-out: IKACh IC50 10-pt CR, AAS
PROPERTY_MEASURED: pIC50
Kindly note that pIC50 refers to -log10 of the concentration in mol/L and answer with the value alone.

// known answers, use as guide
- MOLECULE: "CN(C(=O)c1ccc(F)cc1Cl)[C@@H](CN1CC(O)C1)C1CCC1"
  pIC50: 5.34
- MOLECULE: "Cc1cc(C(=O)N(C)[C@H](CN2CCC(C#N)CC2)C(C)C)ccc1F"
  pIC50: 5.15

Sample CN(C(=O)c1ccc(F)c(F)c1)[C@H](CN1CC(O)C1)C1CCCC1 (single isomer, unassigned) [32.1, isomer 2] ; pIC50 observed: 5.64

Input CN(C(=O)c1ccccc1)[C@H](CN1CC(O)C1)C1CCC1 . Output pIC50: 5.85

Entry CC[C@@H](CN1CC(O)C1)N(C)C(=O)c1ccc(F)c(C)c1 — recorded pIC50 = 5.70

response.value for CC(C)[C@@H](CN1CCCC1)N(C)C(=O)c1ccc(F)c(Cl)c1 (field: pIC50) = 5.72
